molecular target: erythrocytes infected with P. falciparum field isolate 10975; test: flow cytometry, staining of IEs
Listing: % parasite recognition of selected binders
EXPERIMENTAL_ENDPOINT: % parasite recognition (%)

>>> result_number("MGC2 (antibody) VH: EVQLVESGGGLVQPGGSLRLSCAASGFTFSNFWMGWVRQTPGKGLEWVANIKEDGSEKYYVDSVRGRFTISRDSAKNSLYLQMNSLRAEDTAVYYCVRERFCSNHIHKEEHLPRPSISPEPGTVITLGSHVTFVCRGPVGVQTFRLEKDSRSTYNDTEDVSQPSPSESEARFRIDSVSEGYAGLYRCLYYKPPKWSEQSDYLELLVKGDDVTWALYPSCGGDGEASDYNMDVWGKGTTVTVSS VL: DIQMTQSPSTLSASVGDRVTISCRASQRFSGWLAWYQQKPGKAPNLLIYKASPLAGGGPSRFSGSGSGTDFTLTISSLQPDDSATYYCQHYSNYSYTFGQGTKLEIR")
2.6
>>> result_number("MGC1 (antibody) VH: EVQLVESGGGLVQPGGSLRLSCVASGFNFRKSWMGWVRQAPGKGLEWVANIREDGSESFYADSVKGRFTVSRDNAKKSLYLHINSLRAEDTAVYYCARDRFCNDDEIHRHGQEDLPRPSISAAEGTVIPLGSHVTFVCRGPVGVQTFRLEKDSRSIYNDTENVSQPSPSESEARFRIDSVSEGNAGLYRCVYYKAPKWSAQSDYLELLVKGQEVTWALFTSCGGDGEEPDYDMDVRGKGTTVTVSS VL: DIVMTQSPDSLAVSLGERATINCKSSQSVLYRSKNKNYLAWFQQKPGQPPKVLIYSTSTRASGVPDRFTGSGSGTDFTLTISSLQAEDVAVYYCLQYYITPYTFGQGTKLEIK")
1.4
>>> result_number("MGD34 (antibody) VH: EVQLVESGPGLMKTSGTLSLTCAVSGDYVNTNRRWSWVRQAPGKGLEWIGEVHQSGRTNYNPSLKSRVTISVDKSKNQFSLKVDSVTAADTAVYYCARASPLKSQRDTEDLPRPSISAEPGTVIPLGSHVTFVCRGPVGVQTFRLERERNYLYSDTEDVSQTSPSESEARFRIDSVNAGNAGLFRCIYYKSRKWSEQSDYLELVVKGEDVTWALSQSQVDPRACPQGELPISTDIYYVDVWGNGTTFTVSS VL: AIRMTQSPSSLSASPGDKVSITCRASQHINDSLAWFQQRPGKAPKLLIYGASNLHSGVPSRFSGTGSGTDFTLTITGLQSEDFATYFCQQCNCFPPDFGQGTRLEIK")
11.2
>>> result_number("MGC36 (antibody) VH: EVVLVESGGGLVQPGGSLRLSCEASGFNSRSYWMTWVRQAPGKGLEWVASINQDGTEKNYVDSVKGRFTISRDSAKNSLYLQMSSLRADDTAVYYCARDRFCGGESHLHGEEDLPRPSISAEPDTVIPLGSHVTFVCRGPVGVHTFRLERGWRYNDTEDVSQAGPSESEARFRIDSVREGNAGLYRCIYYIAPKWSEQSDYLELRVKGGDVTWALLTYCGGDGEESDYPMDVWGKGTTVTVSS VL: QTVVTQEPSLTVSPGGTVTLTCASSTGPVTSAYYPNWFQQKPGQAPRSLIYSINKKHSWTPARFSGSLLGGKAALTLSGVQPEDEADYYCLLSCGGAQPWVFGGGTKLTVQ")
8.6
